Parameter: melting point. Scope: all listed entries.

The following compounds have reported results that may help.
| compound | melting point |
| --- | --- |
| CC(=Cc1ccsc1)N(O)C(N)=O | 165 to 167 °C |
| FC(F)(F)c1cc2c(cc1Cl)C(Cl)Cc1ccccc1S2 (stereo not given) | 100 to 102 °C |
| Cn1nc(COc2cccc3c2CN(C2CCC(=O)NC2=O)C3=O)cc1CN1CCOCC1 (stereo not given) | 125 to 127 °C |

Returns the measured melting point for the input compound. Input: CC(C)(C#N)c1ccc(C(=O)Nc2cn3cc(Cl)ccc3n2)cc1
248 to 250 °C

Returns the measured melting point for the input compound. Input: C[C@@H](NC(=O)c1cnn(-c2ccc(C(F)(F)F)cc2)c1C(F)(F)F)[C@](O)(Cn1cncn1)c1ccc(F)cc1F
141 to 143 °C

Returns the measured melting point for the input compound. Input: Cc1ccc(S(=O)(=O)OCC2Cc3cc(F)cc(Br)c3O2)cc1 (stereo not given)
84 to 86 °C

Returns the measured melting point for the input compound. Input: CC(C(=O)O)c1ccc(CC(C)C(C)O)cc1 (stereo not given)
85 to 88 °C

Returns the measured melting point for the input compound. Input: CC(=O)c1ccc(C(=O)O)o1
189 to 195 °C

Returns the measured melting point for the input compound. Input: O=[N+]([O-])c1ccc(C2OCCO2)nc1
104 to 105 °C

Returns the measured melting point for the input compound. Input: CCC(=O)NCCC1CN(C=O)c2ccc3c(c21)CCO3 (stereo not given)
139 to 141 °C

Returns the measured melting point for the input compound. Input: COc1ccc(-c2c(C)ccn2-c2ccc(S(C)(=O)=O)cc2)cc1
131 to 132 °C

Returns the measured melting point for the input compound. Input: COC(=O)c1ccc(CN2C(=O)C3(COc4cc5c(cc43)CCO5)c3ccccc32)cc1 (stereo not given)
136 to 140 °C

###

Parameter: melting point. Scope: all listed entries.

The following compounds have reported results that may help.
| smiles.entry | melting point |
| --- | --- |
| Cc1cc(-c2ccc(C(F)(F)F)cc2)nc(-n2cnc(-c3ccc(S(N)(=O)=O)cc3)c2)n1 | 323 °C |
| CCSc1cc(C#N)c(Cl)cn1 | 103 to 104 °C |
| COc1nc(N)nc(C(C)C)n1 | 116 to 118 °C |
| C=CCc1cc(CC(=O)NCCCC)ccc1O | 48 to 50 °C |

Turning now to a further record.
Returns the measured melting point for the input compound. Input: NS(=O)(=O)c1ccccc1-c1ccc(C(=O)N2Cc3ccc(C(=O)NCc4cccnc4)n3Cc3ccccc32)cc1
153 to 156 °C

###

Parameter: melting point. Scope: all listed entries.

The following compounds have reported results that may help.
| compound | melting point |
| --- | --- |
| COc1ccc(S(=O)(=O)N2C(=O)C(c3ccccc3OC)(N3CCC[C@H]3C(=O)N3CCC3)c3cc(Cl)ccc32)c(OC)c1 (stereo not given in full) | 161 to 166 °C |
| C[C@@H]1CN(Cc2ccc(COc3cccc4c3CN(C3CCC(=O)NC3=O)C4=O)cc2)C[C@H](C)O1 (stereo not given in full) | 164 to 166 °C |
| CCOC(=O)c1cn2c3c(c(F)c(F)cc3c1=O)OCC2 | 265 to 266 °C |
| C=C1C(OC(C)=O)C(CO)OC1n1ccc(NC(C)=O)nc1=O (stereo not given) | 174 to 175 °C |

Returns the measured melting point for the input compound. Input: COC(=O)C(=O)c1ccc(OCCOc2cc3ccccc3cc2O)cc1
177 to 178 °C
